This section presents binders with their documented pKd values.
# STUDY TARGET: T1, recombinant human activated Factor VII (FVIIa) (human, UniProt P08709 61-212; P08709 213-466, ten glutamate residues of the Gla domain may be gamma-carboxylated)
# T1 construct: chains tethered by a disulfide bond; also called Factor VIIa; rFVIIa
# T1 sequence 1: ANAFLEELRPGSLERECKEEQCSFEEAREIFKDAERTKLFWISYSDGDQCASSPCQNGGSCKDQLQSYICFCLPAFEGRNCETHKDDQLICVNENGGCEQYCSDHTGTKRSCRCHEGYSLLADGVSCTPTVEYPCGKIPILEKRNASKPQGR
# T1 sequence 2: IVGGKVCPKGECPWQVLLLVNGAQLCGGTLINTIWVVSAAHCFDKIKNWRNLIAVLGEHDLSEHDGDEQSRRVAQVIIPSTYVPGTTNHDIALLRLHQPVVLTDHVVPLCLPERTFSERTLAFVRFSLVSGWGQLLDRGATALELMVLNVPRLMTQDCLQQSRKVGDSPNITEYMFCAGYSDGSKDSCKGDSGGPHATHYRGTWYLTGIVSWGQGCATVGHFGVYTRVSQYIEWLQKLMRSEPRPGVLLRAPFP
# METHOD: BLI (Fortebio)
# Protocol: All steps were performed in running buffer (20 mM HEPES buffer (pH 7.4), 150 mM NaCl, 5 mM CaCl2, 0.03% Tween 20, 1 mg/ml IgG-free BSA) at […] Antibodies were captured on anti-human tips (AHC, Fortebio) for 3 min at a concentration of 10 ug/ml. […] Following this, association was monitored for 3 min using four different concentrations of VIIa (25 nm, 50 nM, 100 nM, and 200 nM), followed by a 3 mi dissociation. Sensorgrams were analysed using Fortebio data analysis software.
The read-out pKd is expressed as -log10 of concentration in moles per litre.

# count of solved cases: 4
[
  {
    "BINDER": "VH SEQ ID NO 546 / VL SEQ ID NO 350 (antibody, IgG4, V domains shown, humanized 11F2; IgG4 S228P/kappa) VH: QVQLQESGPGLVEPSQTLSLTCTVSGYSITSDSAWSWIRQPPGKKLEWIGYIQYSGSTNYNPSLKSRVTISRDTSKNQFSLKLSSVTAADTAVYYCARSVNYYGNSFAVGYWGQGTSVTVSS VL: EIVLTQSPATLSLSPGERATLSCRASQGISDYLHWYQQKPGQAPRLLIKYTSQPATGIPARFSGSGSGTDFTLTISSLEPEDFAVYYCQNGHSFPLTFGAGTKLELK",
    "pKd": 9.02
  },
  {
    "BINDER": "VH SEQ ID NO 610 / VL SEQ ID NO 342 (antibody, IgG4, V domains shown, humanized 11F2; IgG4 S228P/kappa) VH: QVQLQESGPGLVKPSQTLSLTCTVSGGSITSDSAWSWIRQPPGKGLEWIGYIQYSGSTNYNPSLKSRVTISVDTSKNQFSLKLSSVTAADTAVYYCARSVNYYGNSFAVGYWGQGTLVTVSS VL: EIVLTQSPATLSLSPGERATLSCRASQGISDYLHWYQQKPGQAPRLLIKYTSQPATGIPARFSGSGSGRDFTLTISSLEPEDFAVYYCQNGHSFPLTFGAGTKLELK",
    "pKd": 7.80
  },
  {
    "BINDER": "VH SEQ ID NO 562 / VL SEQ ID NO 318 (antibody, IgG4, V domains shown, humanized 11F2; IgG4 S228P/kappa) VH: QVQLQESGPGLVKPSDTLSLTCAVSGYSISSDSAWSWIRQPPGKGLEWIGYIQYSGSTNYNPSLKSRVTMSRDTSKNQFSLKLSSVTALDTAVYYCARSVNYYGNSFAVGPWGQGTLVTVSS VL: EIVLTQSPATLSLSPGERATLSCRASQGISDYLHWYQQKPGEAPRLLIKYTSQPATGIPARFSGSGSGTDFTLTISSLEPEDFAVYYCQNGHSFPLTFGQGTKLEIK",
    "pKd": 9.04
  },
  {
    "BINDER": "VH SEQ ID NO 610 / VL SEQ ID NO 414 (antibody, IgG4, V domains shown, humanized 11F2; IgG4 S228P/kappa) VH: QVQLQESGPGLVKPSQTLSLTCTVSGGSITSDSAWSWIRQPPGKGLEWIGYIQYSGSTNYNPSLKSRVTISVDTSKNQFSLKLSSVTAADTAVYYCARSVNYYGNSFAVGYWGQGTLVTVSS VL: EIVLTQSPATLSLSPGERATLSCRASQGVSDYLAWYQQKPGQAPRLLIKYASQPATGIPARFSGSGSGTDFTLTISSLEPEDFAVYYCQNGHSFPLTFGQGTKLEIK",
    "pKd": 6.11
  }
]

Proceeding to the next binder to report its pKd.
### Prompt In one line, give reported pKd of the entry VH SEQ ID NO 522 / VL SEQ ID NO 430 (antibody, IgG4, V domains shown, humanized 11F2; IgG4 S228P/kappa) VH: QVQLQESGPGLVEPSQTLSLTCTVSGYSISSDSAWSWIRQPPGKGLEWIGYIQYSGSTNYNPSLKSRVTISRDTSKNQFSLKLSSVTAADTAVYYCARSVNYYGNSFAVGPWGQGTLVTVSS VL: EIVLTQSPATLSLSPGERATLSCRASQGVSDYLAWYQQKPGQAPRLLIKYASQPATGIPARFSGSGSGTDFTLTISSLEPEDFGVYYCQNGHSFPLTFGQGTKLEIK .
### Response 7.92
